tested on: MS2 coat protein; assay: apparent KD of MS2 coat protein; designed switch direction (-1 OFF switch, 1 ON switch): 1; higher = weaker reporter binding; settings: input ligand: microRNA oligo, concentration not stated
Kindly note that classification relies on apparent KD of MS2 coat protein with these boundaries: 0: < 30 nM; 1: ≥ 30 nM and < 100 nM; 2: ≥ 100 nM

Which bin, given its apparent KD of MS2 coat protein, does GCUAGUAUUAUUGUCAACAUGAGGAUCACCCAUGUAUGUUGGCAGGAUAUCGUUUGCUUUGCAAACGAGAAGGGCUAAACUAGC [JL SSNG3 1.04] (Eterna round: R96, puzzle: Same State NG 3) occupy?
2

Each sequence maps to one class by apparent KD of MS2 coat protein. Which class for CUCCGGAAGCGAGGAUAUGCAGAGGAUCACCCUGCAGAAGGCGCCCUUGCGAGGAUAUGCAGAGGAUCACCCUGCAGAAGGCGC [pwkr ssNG DX.30] (Eterna round: R96, puzzle: Same State NG 1) ?
0

Record AGGACGAGCACAGGAUAUCCACGGAAAAGACGCGGAGAAGGGUGAAGUCAUGGAAAGAAAAGACAUGAGGAUCACCCAUGUAAA [Dibema] (Eterna round: R96, puzzle: Same State NG 1) — which class?
0

Hello team, could you let me know which band the following sequence falls into: UUGUUUUGUAAUUAACAUGAGGAUCACCCAUGUCUUGGCUCAGAGGAUAUACAUGUUUGAUUGUAGUAGAAGGCUGAAUGUUGU [JR_SSNG3_Sub094] (Eterna round: R96, puzzle: Same State NG 3)
1

Which category fits this record: GCGAGCGUACUUGCUACAUGAGGAUCACCCAUGUUCAUUGGACAGGAUAUGGUACCGUUUCGGUACCAGAAGGGUUCAUCAUGU [JL SSNG3 3.73] (Eterna round: R96, puzzle: Same State NG 3)
0

Kindly identify the class of AGCUAUUAAUCAGGAUAUGGUCACAUGAGGAUCACCCAUGUAACGAUGAUAUAAUGUGGUCAAGACUAGAAGGGAUUGCUAACA [SameState NG2 #66] (Eterna round: R96, puzzle: Same State NG 2) .
2

Tag the class for GGAGCCGGCCUAGGAUAUUUCAUAAAACAACAUGAGGAUCACCCAUGUAGGCCAGAAGGCCUUGGGAAGAAGGAGGUCGGCUCC [Loop Effect - C28] (Eterna round: R96, puzzle: Same State NG 2)
0

GET /class?item= CCCUCACAUGAGGAUCACCCAUGUCCUAGCCCGUCAGGAUAUAGCCCGCAUCCGCUGCGGCUAGAAGGGACAGCUG [JR_SS001_Sub611] (Eterna round: R96, puzzle: Same State 1)
2

Which class is correct for the following sequence? CUAAAAGGAUGAGGAUAUGCAGAGGAUCACCCUGUAGAAGGCAACAGAUGAGGAUAUGCAGAGGAUCACCCUGUAGAAGGCAAC [pwkr ssNG DX.2] (Eterna round: R96, puzzle: Same State NG 1)
1

Which class does GAGUAGUUGGGAGGAUAUCGAUUGUUAUAGAAUCGAGAAGGUUUUAACAUGAGGAUCACCCAUGUAGGACUAUUCCUGUGUAUC [Parity 73 - Jieux - Same State NG 1] (Eterna round: R96, puzzle: Same State NG 1) fall in?
1

Which category fits this record: GUAGCAUACCGAGGAUAUUCAUACAUGAGGAUCACCCAUGUUAUUAUAGGACGAUUACGUCCUUGGGAGAAGGCGGAAUGCUAC [Xeonanis - 20 Mod29] (Eterna round: R96, puzzle: Same State NG 2)
0

Looking at AGAUCAUGACGAGGAUAUGGAACAUGAGGAUCACCCAUGUAUGUUCCAUAACGCGAAUGACGAAUCCAGAAGGCGUCGUGGUCA [JL SSNG2 1.10] (Eterna round: R96, puzzle: Same State NG 2) , which class would you pick?
2

Form: Item = GGUCGGACUCAACAUGAGGAUCACCCAUGUGCGGAAACGCCAUAGGAUAUCUGUCCGAAAAGGUCAGAGAAGGGUGAACCGACC [Fiskers NG3ss - 66] (Eterna round: R96, puzzle: Same State NG 3) ; Class = ?
2

Kindly identify the class of UAUCUCAUGUAAGGAUAUGCAGCCGUUUCGGCUGCAGAAGGUACUAUAAUACAUGAGGAUCACCCAUGUCUCUCGCAUUGCGAG [JL SSNG1 1.49] (Eterna round: R96, puzzle: Same State NG 1) .
2

Class? Entry: GGAAUAUUUACAGGAUAUGAGUUGUAAAGUCGAUCAGAAGGGUAGGUGUCUUGCACGGUGUGUUACAUGAGGAUCACCCAUGUU [SameState NG1 #21] (Eterna round: R96, puzzle: Same State NG 1)
2

Which bin should I file UGUUGUUAAUUAGGAUAUGGUCACAUGAGGAUCACCCAUGUAAUGUCGAUGCUAUGUGGAUCCGAUCAGAAGGAAUGGCUAACA [SameState NG2 #95] (Eterna round: R96, puzzle: Same State NG 2) under?
2

Which category fits this record: GUGGUGGGUUGAGGAUAUUGGUUGUUGUUGUUCUACAUGAGGAUCACCCAUGUGGGUUGUGGUUUUGAGAAGGUUGGUUGCUGG [salish99_SSNG2_r04_049] (Eterna round: R96, puzzle: Same State NG 2)
1
